experiment: chemical genetic growth profiling, strain panel (AID 1159580);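 further: tested at 20 µM; growth read once vehicle control cultures reached saturation at 30 °C; 1 = growth at the plate median or of vehicle wells; lower values mean less growth of the strain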; details: S. cerevisiae deletion strains, growth OD, locus YJL164C, strain tpk1, stronger effect = lower value
In all, about 5,500 compounds went through this assay and about 2,000 (36%) were called active. Roughly 18% stayed inconclusive and do not appear here. This is one part of the list.

MOLECULE	normalized growth
CCC(=O)OC1[C@@H]2CC3=C4CC(=O)O[C@@H](c5ccoc5)[C@]4(C)CCC3[C@@](C)(C2=O)[C@@H](CC(=O)OC)C1(C)C (some centres undefined)	1.01
C1N2CN3CN1CN(C2)C3	0.99
C=NC(C(=O)NC1C(=O)N2C1SC(C)(C)C2C(=O)O)c1ccccc1 (centres undefined)	0.977
COc1ccnc(CS(=O)c2nc3ccc(OC(F)F)cc3[nH]2)c1OC (centres undefined)	1
Cc1onc(-c2ccccc2)c1-c1ccc(S(N)(=O)=O)cc1	1.01
NC(=O)CS(=O)C(c1ccccc1)c1ccccc1 (centres undefined)	0.988
Fc1ccc([C@@H]2CCNC[C@H]2COc2ccc3c(c2)OCO3)cc1	1.01
C[C@@H]1CC2C3CCC4=CC(=O)C=C[C@]4(C)[C@@]3(F)[C@@H](O)C[C@]2(C)[C@@]1(O)C(=O)CO (some centres undefined)	1.01
NCCCCC(=O)O	1.02

###

Quick list: normalized growth per entry.
assay: chemical genetic growth profiling, strain panel (AID 1159580);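 further: tested at 20 µM; growth read once vehicle control cultures reached saturation at 30 °C; 1 = growth at the plate median or of vehicle wells; lower values mean less growth of the strain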; conditions: S. cerevisiae deletion strains, growth OD, locus YER015W, strain faa2, stronger effect = lower value
The campaign covered roughly 5,500 compounds. About 2,000 (36%) were called active. Roughly 18% stayed inconclusive and do not appear here. The list shows a part of the results.
MEASUREMENT KIND: normalized growth

COMPOUND	MEASUREMENT KIND	OBSERVED VALUE
CC(=O)O[C@H]1C[C@@H](OC(C)=O)C(C)(C)C2C[C@@H](O)[C@]3(C)C(CC[C@@]4(C)[C@H](c5ccoc5)OC(=O)[C@H]5O[C@]543)[C@]21C (stereo partly drawn)	normalized growth	0.997
CCC(=O)OC1[C@@H]2CC3=C4CC(=O)O[C@@H](c5ccoc5)[C@]4(C)CCC3[C@@](C)(C2=O)[C@@H](CC(=O)OC)C1(C)C (stereo partly drawn)	normalized growth	1
CC(=O)C1CC[C@H]2C3CC[C@H]4C[C@H](O)CC[C@]4(C)C3CC[C@]12C (stereo partly drawn)	normalized growth	1
COc1ccc(-c2oc3cc(OC)c(OC)c(OC)c3c(=O)c2OC)cc1OC	normalized growth	0.99
CC(C)/C(O)=C1/C(=O)O[C@@H](c2ccoc2)[C@]2(C)C(O)[C@@H](O)[C@@]34OC5(C)OC67CC(C)(C(O)[C@]6(O)[C@@H](O)[C@]3(O5)C12)[C@H](CC(=O)O)[C@]74C (stereo partly drawn)	normalized growth	1.01
O=c1cccc2n1CC1CC2CN2CCCC[C@@H]12 (stereo partly drawn)	normalized growth	0.976
COC[C@]12CN(C=O)C3[C@@H]4[C@H](OC)C1[C@]3(C1CC3(O)C(OC)C(O)C4(OC(C)=O)C1C3OC(=O)c1ccccc1)[C@@H](OC)C[C@H]2O (stereo partly drawn)	normalized growth	1.01
CC1(C)C(=O)[C@@H]2O[C@@H]2[C@@]2(C)C1C[C@@H](O)[C@]1(C)C2CC[C@@]2(C)[C@H](c3ccoc3)OC(=O)C3OC321 (stereo partly drawn)	normalized growth	0.996
CC(=O)O[C@@H]1CC2C(C)(C)[C@H](O)C=C[C@]2(C)C2CC[C@@]3(C)[C@H](c4ccoc4)OC(=O)C4OC43[C@@]21C (stereo partly drawn)	normalized growth	1.02
C=CCS(=O)C[C@H](N)C(=O)O (stereo partly drawn)	normalized growth	1
NC(=O)NC1NC(=O)NC1=O (stereo not drawn)	normalized growth	1
COC(=O)[C@H](c1ccccc1Cl)N1CCc2sccc2C1	normalized growth	0.986
CC(=O)N[C@@H](CCC(=O)O)C(=O)O	normalized growth	1.02
